- assay_text: Aqueous stability of the compound assessed as drug degradation at 40 degreeC and measured after 12 months by RP-HPLC analysis
- Format: physicochemical
- settings: aqueous solution, read-out: Drug degradation
measured_property: degraded at 8760 h

Ask | Endpoint output: degraded at 8760 h of CCCCCCCCCCC[C@H](CC(=O)NCCO[C@@H]1O[C@H](CO)[C@@H](OS(=O)(=O)O)[C@@H](NC(=O)C[C@@H](CCCCCCCCCCC)OC(=O)CCCCCCCCC)[C@H]1NC(=O)C[C@@H](CCCCCCCCCCC)OC(=O)CCCCCCCCC)OC(=O)CCCCCCCCC.CCN(CC)CC . Value?
Reply | < 10%
